Values were extracted from patent US20250295798A1.

System: A375
method-notes: Compounds cellular killing in A375
Type: cell-based, human
condition-summary: A375, 6 days, Cell Titer-Glo
Below is a list of entries, each paired with its recorded Emax (%) value.
assay-metric: Emax (%)

• CC[C@@]1(O)C(=O)OCc2c1cc1n(c2=O)Cc2c-1nc1cc(F)c(C)c3c1c2[C@@H](N1CCCC1CO)CC3 (single isomer, unassigned) = 99.5
• CC[C@@]1(O)C(=O)OCc2c1cc1n(c2=O)Cc2c-1nc1cc3c(c4c1c2C(CCCO)CC4)OCO3 (single isomer, unassigned) = 100.0
• CC[C@@]1(O)C(=O)OCc2c1cc1n(c2=O)Cc2c-1nc1cc(F)c(C)c3c1c2[C@@H](NC(=O)C1CCCC1O)CC3 (single isomer, unassigned) = 99.9
• CC[C@@]1(O)C(=O)OCc2c1cc1n(c2=O)Cc2c-1nc1cc(F)c(C)c3c1c2[C@@H](N1CCC1CO)CC3 (single isomer, unassigned) = 100.0
